- experiment description: Pharmacokinetics in female BALB/c nude mice bearing A375 xenografts, 1 day dosing (PK and PD study): plasma, tumor and brain concentrations, AUC
- Assay type: in vivo
- run parameters: mouse, tumor, po, 1.5 mg/kg, 1.5 mg/kg p.o. BID × 1 day; post 2nd dose; 10 h; read-out: Mean Concentration in Tumor ± SEM
reported endpoint: concentration at 10 h (ng/g)
# number only, unit ng/g dropped from output

[in] concentration at 10 h for CCN(C)S(=O)(=O)Nc1ccc(F)c(Oc2ccc3ncn([C@H]4COC5(CCN(C6CC7(C6)CN(c6cc8c(cc6F)c(N6CCC(=O)NC6=O)nn8C)C7)CC5)C4)c(=O)c3c2)c1C#N ?
[out] 246
